testedTarget: b-Raf (V600E) (Homo sapiens (Human), UniProt P15056, V600E)
Sequence (P15056 whole entry V600E): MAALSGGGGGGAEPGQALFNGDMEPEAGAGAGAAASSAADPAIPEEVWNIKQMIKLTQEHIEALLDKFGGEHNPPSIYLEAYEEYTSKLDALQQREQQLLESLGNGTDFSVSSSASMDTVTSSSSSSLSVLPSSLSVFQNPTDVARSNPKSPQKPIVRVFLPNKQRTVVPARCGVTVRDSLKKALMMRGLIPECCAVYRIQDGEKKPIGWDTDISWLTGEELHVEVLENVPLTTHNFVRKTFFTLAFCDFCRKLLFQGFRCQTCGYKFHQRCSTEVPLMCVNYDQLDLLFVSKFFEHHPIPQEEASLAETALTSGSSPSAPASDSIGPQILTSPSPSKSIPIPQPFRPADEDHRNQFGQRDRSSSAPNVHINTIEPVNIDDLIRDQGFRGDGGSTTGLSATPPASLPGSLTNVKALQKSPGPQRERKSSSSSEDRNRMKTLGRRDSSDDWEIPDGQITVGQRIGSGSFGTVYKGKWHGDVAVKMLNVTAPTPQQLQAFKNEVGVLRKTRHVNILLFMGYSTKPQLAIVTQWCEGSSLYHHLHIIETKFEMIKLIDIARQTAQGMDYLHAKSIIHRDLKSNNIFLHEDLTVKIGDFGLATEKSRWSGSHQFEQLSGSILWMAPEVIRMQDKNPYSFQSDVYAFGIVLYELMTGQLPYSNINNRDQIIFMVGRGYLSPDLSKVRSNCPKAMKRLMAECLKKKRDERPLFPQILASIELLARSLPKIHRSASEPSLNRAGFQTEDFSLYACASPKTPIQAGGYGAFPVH
measurementParameters: read-out: b-Raf IC-50; Table 2; AlphaScreen, 3 hours reaction
pIC50: −log10 of the molar value.
reportedProperty: pIC50

For orientation, consider the following solved cases.
CCOc1ncc(-c2cc(NC(=O)c3cccc(C(F)(F)F)c3)cnc2C)cc1N1CCOCC1: 8.92
Cc1ccc(NC(=O)c2ccnc(C3(C#N)CC3)c2)cc1-c1cc(N2CCOCC2)c(=O)n(C)c1: 8.47
CCOc1ncc(-c2cc(NC(=O)c3ccnc(C(F)F)c3)cnc2C)cc1N1CCOCC1: 8.96
CCOc1ncc(-c2cc(NC(=O)c3ccnc(C(C)(F)F)c3)ccc2C)cc1N1CCOCC1: 9.22
Cc1ncc(NC(=O)c2ccnc(C(C)C)c2)cc1-c1cnc(OC2CCOCC2)c(N2CCOCC2)c1: 8.15
Cc1ncc(NC(=O)c2cnnc(C(F)(F)F)c2)cc1-c1cnc(Cl)c(N2CCOCC2)c1: 8.42
Cc1ncc(NC(=O)c2cc(C3CC3)on2)cc1-c1cc(N2CCOCC2)c(=O)n(C)c1: 7.90
Cc1ccc(NC(=O)c2cccc(C(F)(F)F)c2)cc1-c1csc(N2CCOCC2)n1: 8.44
Cc1nn(C)cc1C(=O)Nc1cnc(C)c(-c2cc(N3CCOCC3)c(=O)n(C)c2)c1: 5.47
Cc1ccc(C(=O)Nc2cccc(C(F)F)c2)cc1-c1cc(N2CCOCC2)c(=O)n(C)c1: 8.80

1. Cn1cc(-c2cc(NC(=O)c3cccc(C(F)F)c3)ccc2C#N)cc(N2CCOCC2)c1=O
2. Cc1ncc(NC(=O)c2cccc(C(F)(F)F)c2)cc1-c1cnc(OC2CCOCC2)c(N2CCOCC2)c1
3. CCn1cc(C(=O)Nc2cnc(C)c(-c3cc(N4CCOCC4)c(=O)n(C)c3)c2)c(C)n1
Please rank these compounds by pIC50 in descending order. Answer by listing the labels in the requested order.
2, 3, 1

----------
testedTarget: b-Raf (V600E) (Homo sapiens (Human), UniProt P15056, V600E)
measurementParameters: read-out: b-Raf IC-50; AlphaScreen, 60 min pre-incubation, reaction 3 hours at room temperature
pIC50: −log10 of the molar value.
reportedProperty: pIC50

Cc1ncc(NC(=O)c2ccnc(C(C)(F)F)c2)cc1-c1cc(N2CCOCC2)c(S(C)(=O)=O)nn1: 8.05
Cc1ncc(NC(=O)c2ccnc(C(C)(F)F)c2)cc1-c1cc(N2CCOCC2)c2nccn2c1: 8.21
Cc1ccc(NC(=O)c2ccnc(C(F)(F)F)c2)cc1-c1cc(NCCO)nc(N2CCOCC2)c1F: 7.88
Cc1ccc(NC(=O)c2cccc(C(F)(F)F)c2)cc1-c1ccnc(N2CCOCC2=O)c1: 8.30
Cc1ncc(NC(=O)c2cccc(C(F)(F)F)c2)cc1-c1cc(N2CCOCC2)nc(N2CC(O)C2)c1: 8.42

P. Cc1ncc(NC(=O)c2ccnc(C(C)(F)F)c2)cc1-c1cc(N2CCOCC2)nc(N2CC(C)(O)C2)c1
Q. Cc1ncc(NC(=O)c2ccnc(C(C)(C)C#N)c2)cc1-c1cc(N2CCOCC2)nc(N2CC(C)(O)C2)c1
R. Cc1ccc(NC(=O)c2ccnc(C(F)F)c2)cc1-c1cc(OCCO)nc(N2CCOCC2)c1
S. CCOc1cc(-c2cc(NC(=O)c3ccnc(C(C)(C)O)c3)cnc2C)cc(N2CCOCC2)n1
Please rank these compounds by pIC50 in descending order. Answer by listing the labels in the requested order.
R, P, S, Q

----------
testedTarget: b-Raf (V600E) (Homo sapiens (Human), UniProt P15056, V600E)
measurementParameters: read-out: b-Raf IC-50; AlphaScreen, 60 min pre-incubation, reaction 3 hours at room temperature
reportedProperty: IC50 (nM)

Cc1ccc(NC(=O)c2ccnc(C(C)(C)O)c2)cc1-c1cc(OC2CCOCC2)nc(N2CCOCC2)c1 [Example 1150]: 1.6

P. Cc1ncc(NC(=O)c2ccnc(C(C)(C)F)c2)cc1-c1cc(C2COCCO2)nc(N2CCOCC2)c1 (stereo not shown) [Example 1167]
Q. Cc1ccc(NC(=O)c2ccnc(C(C)(C)F)c2)cc1-c1cc(N2CCOCC2)c(S(C)(=O)=O)nn1 [Example 928]
R. Cc1ncc(NC(=O)c2ccnc(C(C)(C)C#N)c2)cc1-c1cc(N2CCOCC2)nc(N2CC(O)C2)c1 [Example 1083]
Could you please order the items by IC50, going from the lowest number to the highest? Answer by listing the labels in the requested order.
Q, P, R
(Q: 1.9 nM, P: 7.62 nM, R: 35.2 nM)

----------
testedTarget: b-Raf (V600E) (Homo sapiens (Human), UniProt P15056, V600E)
measurementParameters: read-out: b-Raf IC-50; Table 2; AlphaScreen, 3 hours reaction
reportedProperty: IC50 (nM)

Cn1cc(-c2cc(C(=O)Nc3cccc(C(C)(C)C#N)c3)ccc2Cl)cc(N2CCOCC2)c1=O: 6

A. Cc1ncc(NC(=O)c2ccnc(C(C)(C)C#N)c2)cc1-c1cnc(OC2CCOCC2)c(N2CCOCC2)c1
B. CCOc1cccc(C(=O)Nc2cnc(C)c(-c3cc(N4CCOCC4)c(=O)n(C)c3)c2)c1
C. Cn1cc(-c2cc(NC(=O)c3cccc(C(F)(F)F)c3)ccc2Cl)cc(N2CCOCC2)c1=O
D. COCCOc1ncc(-c2cc(NC(=O)c3cccc(C(F)(F)F)c3)cnc2C)cc1N1CCOCC1
E. Cn1cc(-c2cc(NC(=O)c3ccnc(C(F)(F)F)c3)ccc2Cl)cc(N2CCOCC2)c1=O
Could you please order the items by IC50, going from the lowest number to the highest? Answer by listing the labels in the requested order.
E, C, D, A, B

----------
testedTarget: b-Raf (V600E) (Homo sapiens (Human), UniProt P15056, V600E)
measurementParameters: read-out: b-Raf IC-50; AlphaScreen, 60 min pre-incubation, reaction 3 hours at room temperature
reportedProperty: IC50 (nM)

Cc1ncc(NC(=O)c2ccnc(C(C)(C)F)c2)cc1-c1cc(N2CCOCC2)nc(N2CC(C)(O)C2)c1: 8.59
Cc1ncc(NC(=O)c2cc(C(C)(C)C#N)ccn2)cc1-c1cnc(OC2CCOCC2)c(N2CCOCC2)c1: 9.51
Cc1ncc(NC(=O)c2cnnc(C3(C#N)CC3)c2)cc1-c1cnc(OCC(F)F)c(N2CCOCC2)c1: 7.55
Cc1ncc(NC(=O)c2cc(C(C)(C)C#N)ccn2)cc1-c1cnc(OC2CC3(COC3)C2)c(N2CCOCC2)c1: 8.79

----------
testedTarget: b-Raf (V600E) (Homo sapiens (Human), UniProt P15056, V600E)
measurementParameters: read-out: b-Raf IC-50; AlphaScreen, 60 min pre-incubation, 3 hours reaction
pIC50: −log10 of the molar value.
reportedProperty: pIC50

CCNc1nc(-c2cc(C(=O)Nc3cccc(C(C)(C)C#N)c3)ccc2C)cc(N2CCOCC2)n1 [Example 732]: 8.66
Cc1ccc(NC(=O)c2ccnc(C(F)(F)F)c2)cc1-c1cc(N2CCOCC2)c(OCCO)nn1 [Example 585]: 8.85
Cc1ccc(NC(=O)c2ccnc(C(F)(F)F)c2)cc1-c1cc(N2CCOCC2)nc(OC2CNC2)n1 [Example 780]: 8.68
COc1nnc(-c2cc(NC(=O)c3cccc(C(F)F)c3)cnc2C)cc1N1CCOCC1 [Example 604]: 8.64
Cc1ncc(NC(=O)c2cccc(C(F)F)c2)cc1-c1cc(N2CCOCC2)n(C)c(=O)c1 [Example 506]: 8.74
